pIC50 for assorted molecules
System under test: TNFα (Homo sapiens (Human), UniProt P01375)
Sequence (P01375 77-233): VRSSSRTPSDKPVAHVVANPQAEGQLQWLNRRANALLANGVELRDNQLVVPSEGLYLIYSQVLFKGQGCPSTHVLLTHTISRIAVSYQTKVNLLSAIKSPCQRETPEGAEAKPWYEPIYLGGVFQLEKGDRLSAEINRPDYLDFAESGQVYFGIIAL
Assay details: TNF induced HEK-Blue assay
Assay context: TNFα 0.5 ng/ml; HEK-Blue-CD40L cells, NF-kB-driven secreted alkaline phosphatase reporter; 18 h
pIC50: −log10 of the molar value.

In the examples that follow, each entry is paired with its recorded pIC50.
Substance smiles: CC(C)(O)c1ncc(-c2cc3c(cc2F)nc2n3[C@@H](c3ccccc3OCc3ccncc3)[C@@H]3C[C@H]23)cn1
System under test: TNFα (Homo sapiens (Human), UniProt P01375)
Test result: 5.00 to 6.00
//
Substance smiles: NC(=O)c1ccc(-c2cc3c(cc2F)nc2n3[C@@H](c3ccccc3OC(F)F)[C@@H]3C[C@H]23)cn1
System under test: TNFα (Homo sapiens (Human), UniProt P01375)
Test result: > 6.00
//
Substance smiles: CC(C)(O)c1ncc(-c2cc3c(cc2F)nc2n3[C@H](c3ccccc3OCc3ccncc3)[C@@H]3C[C@H]23)cn1
System under test: TNFα (Homo sapiens (Human), UniProt P01375)
Test result: 4.60 to 5.00

Now look at this one.
query: GET /values?readout=pIC50&system=TNFα (Homo sapiens (Human), UniProt P01375)&item= `NC(=O)c1ccc(-c2cc3c(cc2F)nc2n3[C@H](c3ccccc3OC(F)F)[C@@H]3C[C@H]23)cn1`
result: 5.00 to 6.00

---

IC50 for assorted molecules
System under test: TNFα (Homo sapiens (Human))
Assay details: TNF induced HEK-Blue assay
Assay context: TNFα 0.5 ng/ml; HEK-Blue-CD40L cells, NF-kB-driven secreted alkaline phosphatase reporter; 18 h

query: Would you kindly share the measured IC50 for `O=C1CN(c2ncc(-c3cc4c(cc3F)nc3n4[C@@H](c4ccccc4OC(F)F)[C@H]4C[C@@H]34)cn2)CCN1` ?
result: < 1 µM

query: Would you kindly share the measured IC50 for `NC(=O)c1ccc(-c2cc3c(cc2F)nc2n3[C@@H](c3ccccc3OC(F)F)[C@H]3C[C@@H]23)cn1` ?
result: < 1 µM

query: Would you kindly share the measured IC50 for `Fc1cc2nc3n(c2cc1-c1cnc(N2CCOCC2)nc1)[C@@H](c1ccccc1OC(F)F)[C@H]1C[C@@H]31` ?
result: < 1 µM

query: Would you kindly share the measured IC50 for `N#Cc1ccc(-c2cc3c(cc2F)nc2n3[C@@H](c3ccccc3OC(F)F)[C@H]3C[C@@H]23)cn1` ?
result: 1 to 10 µM

query: Would you kindly share the measured IC50 for Fc1cc2nc3n(c2cc1Br)[C@@H](c1ccccc1OC(F)F)[C@@H]1C[C@H]31 (racemic) ?
result: 10 to 25 µM

---

System under test: UniProtKB P01375
Assay details: TNF induced HEK-Blue assay
Assay context: TNFα 0.5 ng/ml; HEK-Blue-CD40L cells, NF-kB-driven secreted alkaline phosphatase reporter; 18 h
pIC50: −log10 of the molar value.
pIC50 for assorted compounds

Compound: CC(C)(O)c1ncc(-c2cc3c(cc2F)nc2n3[C@@H](c3ccccc3OC(F)F)[C@H]3C[C@@H]23)cn1 [Example 2]
pIC50: > 6.00

Compound: CNC(=O)c1ccc(-c2cc3c(cc2F)nc2n3[C@@H](c3ccccc3OC(F)F)[C@H]3C[C@@H]23)cn1
pIC50: 5.00 to 6.00

Compound: COc1ccc(-c2ccc3nc4n(c3c2)[C@@H](c2ccccc2)[C@H]2CN(C(=O)OC(C)(C)C)C[C@@H]42)cn1 (racemic)
pIC50: 4.60 to 5.00

Compound: CC(C)(O)c1ncc(-c2cc3c(cc2F)nc2n3[C@H](c3ccccc3Oc3ccccc3F)[C@@H]3C[C@H]23)cn1
pIC50: 4.60 to 5.00

Compound: CC(C)(O)c1ncc(-c2cc3c(cc2F)nc2n3[C@@H](c3ccccc3Oc3ccccc3)[C@@H]3C[C@H]23)cn1 (racemic) [Example 23]
pIC50: 5.00 to 6.00

Now look at this one.
query: Would you kindly share the measured pIC50 for `O=C(O)CN1CCN(c2ncc(-c3cc4c(cc3F)nc3n4[C@H](c4ccccc4OC(F)F)[C@@H]4C[C@H]34)cn2)CC1` ?
result: > 6.00
